- protocolSummary: forskolin-driven CRE-LacZ activity in PC12 – cell-based, CRE-LacZ reporter, forskolin-stimulated, primary screen (AID 1146);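 note: PC12 cells with 6xCRE LacZ reporter stimulated by forskolin 10 µM; beta-galactosidase reporter signal reflecting CREB driven transcription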
- measurementContext: luminescence, 4.5 h, higher = more signal, called active from +8 up or from −8 down
Recorded z-score values for a group of molecules are listed next.
Format: numeric value only, no unit, no commentary.

{"molecule": "O=C1OCCC=C[C@H]2OC34C=CCN(CCN5CCOCC5)C(=O)[C@H]3N(CCCCCO)C(=O)[C@@H]4C12 (some centres undefined)", "z-score": 0.25}

Problem: Given C=CC[C@@]1(C(=O)N2CCCCC2)N=C(c2ccc(OCCCO)cc2)O[C@@H]1c1ccccc1N=[N+]=[N-] , state its recorded z-score.
Solution: -1.53

Problem: Given O=C1OCC=C[C@H]2OC34C=CCN(Cn5nnc6ccccc65)C(=O)[C@H]3N(CCCCCO)C(=O)[C@@H]4[C@@H]12 (some centres undefined) , state its recorded z-score.
Solution: -0.29

Problem: Given CN1C(=O)C2C=CC(C(O)c3ccccc3)N(N3CCCCC3)C2C1=O (centres undefined) , state its recorded z-score.
Solution: 0.584

Data credit: PubChem BioAssay
